# experimental system: Glucocorticoid receptor (Homo sapiens)
# Sequence (P04150 whole entry): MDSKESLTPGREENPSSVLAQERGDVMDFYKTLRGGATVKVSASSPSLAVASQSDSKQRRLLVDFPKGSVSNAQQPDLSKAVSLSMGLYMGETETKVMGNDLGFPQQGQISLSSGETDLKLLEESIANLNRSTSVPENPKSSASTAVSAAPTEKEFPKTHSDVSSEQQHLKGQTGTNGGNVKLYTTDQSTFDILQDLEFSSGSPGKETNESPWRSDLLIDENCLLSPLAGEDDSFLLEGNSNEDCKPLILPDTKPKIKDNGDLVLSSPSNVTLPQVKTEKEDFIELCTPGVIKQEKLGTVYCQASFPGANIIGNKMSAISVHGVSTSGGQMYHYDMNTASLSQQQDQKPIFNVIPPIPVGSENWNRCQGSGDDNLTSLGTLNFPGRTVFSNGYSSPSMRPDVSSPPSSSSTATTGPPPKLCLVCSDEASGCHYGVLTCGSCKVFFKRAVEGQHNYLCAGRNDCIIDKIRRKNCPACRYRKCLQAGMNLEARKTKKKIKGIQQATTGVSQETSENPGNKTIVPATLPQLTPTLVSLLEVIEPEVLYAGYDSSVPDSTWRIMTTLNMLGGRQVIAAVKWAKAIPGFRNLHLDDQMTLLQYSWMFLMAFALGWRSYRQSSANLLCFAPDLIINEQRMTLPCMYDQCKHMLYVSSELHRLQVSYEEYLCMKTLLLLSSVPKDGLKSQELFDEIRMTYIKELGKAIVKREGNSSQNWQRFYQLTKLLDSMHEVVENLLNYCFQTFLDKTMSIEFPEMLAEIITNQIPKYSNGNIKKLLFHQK
# experiment notes: Transrepression activity at glucocorticoid receptor-mediated antiinflammatory activity in human HeLa cells assessed as inhibition of TPA-induced collagenase promoter activity by luciferase reporter gene assay
# Type: cell-based
Let's look at some compounds and their measured IC50.

| compound | unit of measure | IC50 |
| --- | --- | --- |
| COc1ccc(F)cc1C(C)(C)CC(O)(CNc1cccc2nc(C)ccc12)C(F)(F)F (centres undefined) | nM | 2 |
| Cc1noc(=O)c2ccc(NC(=O)C(O)(CC(C)(C)c3cc(F)ccc3O)C(F)(F)F)cc12 (centres undefined) | nM | 10 |
| Cc1ccc2c(NCC(O)(CC(C)(C)c3cc(F)ccc3O)C(F)(F)F)cccc2n1 (centres undefined) | nM | 3.16 |
| CC(C)(CC(O)(CNc1cccc2ncccc12)C(F)(F)F)c1cc(F)ccc1O (centres undefined) | nM | 6.31 |
